# test system: T1, polyhistidine-tagged human 5MP1 C-terminal domain (aa. 245–419) (human, UniProt Q9Y6E2 245-419)
# T1 construct: human eIF5-mimic protein 1 (5MP1, BZW2), CTD, aa; 245-419; Preparation of the construct is described in the Supplementary file; also called 5MP1-CTD; CTD
# T1 sequence (looked up): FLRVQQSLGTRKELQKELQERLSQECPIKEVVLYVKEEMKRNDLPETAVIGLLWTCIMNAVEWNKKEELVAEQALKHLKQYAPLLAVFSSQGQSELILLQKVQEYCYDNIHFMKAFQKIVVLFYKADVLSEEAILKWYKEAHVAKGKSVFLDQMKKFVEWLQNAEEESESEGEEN
# assay method text: ITC; a solution of eIF2β 53–136 injected with human 5MP1 constructs; performed as described previously (16)
# stated conditions: both partners purified
quantity name: Kd

get_value(item= human eIF2β 53–136 (domain or fragment, UniProt P20042 53-136, looked up, human eIF2 beta subunit, residues 53-136, carrying two K-boxes; also called eIF2β_(53–135)) DLEADEEDTRKKDASDDLDDLNFFNQKKKKKKTKKIFDIDEAEEGVKDLKIESDVQEPTEPEDDLDIMLGNKKKKKKNVKFPDE , readout=Kd) returns ~5 µM

Entry source: paper PMC4176352
